Taken from PubChem BioAssay (NCI).

- System: M14 melanoma
- protocol: NCI tumour cell line growth inhibition, 48 h
TGI listing for selected molecules.

molecule	TGI
O=C(/C=C/c1ccccc1)CC(=O)CCC(=O)Nc1ccc(Cl)cc1	> 100 µM
C=Cc1ccccc1C1(O)C=CC(OC)(OC)C=C1	18.5 µM
C=CC(OCC)(OCC)OCC	> 100 µM
c1c[nH]c(CN2CCOCC2)n1	> 100 µM
CCOC(=O)C(NC(=O)c1nc[nH]c1[N+](=O)[O-])C(C)C (configuration not stated)	> 100 µM
COc1cc2c(cc1Cc1c(F)cccc1Cl)nc(-c1c(F)cccc1Cl)n2Cc1c(F)cccc1Cl	> 100 µM
N#Cc1c(-c2ccccc2)cc(-c2ccc(Cl)cc2)[nH]c1=S	> 100 µM
COc1ccc(COCC[C@H](C)OC2OC(CO[Si](C)(C)C(C)(C)C)C(OC(=O)CCCN=[N+]=[N-])C(OC(=O)CCCN=[N+]=[N-])C2OC(=O)CCCN=[N+]=[N-])cc1 (some centres not stated)	> 100 µM
O=[N+]([O-])c1ccc(Sc2c3ccccc3nc3cc(Cl)ccc23)cc1	> 100 µM
C\C(=N/N=C1/C(=C\N(C)C)C(=O)NC(=O)N1C)c1ccc(Cl)cc1	> 100 µM
O=c1c(F)cn(Cc2ccccc2CCl)c(=O)n1Cc1ccccc1CCl	4.05 µM
Cc1c(C(=O)O)oc2ccc([N+](=O)[O-])cc12	> 100 µM
O=c1cc(-c2cc(O)c(O)c(-c3c(O)cc4oc(-c5ccc(O)c(O)c5)cc(=O)c4c3O)c2)oc2cc(O)cc(O)c12	> 25 µM
Cc1cc(I)cc(CN(C)CCCN2CCCC2)c1O	33 µM
C1=C\SS/C=C\SS/1	> 100 µM
COc1cc(NC(C)=O)ccc1C(=O)NN1C(=O)/C(=C/c2ccco2)N=C1c1ccccc1	> 50 µM
O=C1CCCCN1CCCCC#Cc1cccc(C#Cc2cccnc2)c1	34.7 µM
CN1CCN(c2cc3nsnc3c3nsnc23)CC1	> 10 µM
CCON1CC(C(=O)OC)=C(O)C1=O	> 100 µM
O=C(O)[C@@H](Cc1ccc2ccccc2c1)NC(=O)n1c2ccccc2c2ccccc21	19.5 µM
COc1cc(/C=C/C=C2\CC/C(=C\C=C\c3ccc(O)c(OC)c3)C2=O)ccc1O	> 100 µM
COc1cnc2c(c1)C(=O)c1c-2n(CCCN2CCN(C)CC2)c(=O)c2cc([N+](=O)[O-])ccc12	0.37 µM
N#Cc1nc(C2CCC2)oc1N	> 100 µM
CCC(=O)Nc1nc2c(ncn2C2OC(COC(=O)CC)C(OC(=O)CC)C2OC(=O)CC)c(=O)[nH]1 (configuration not stated)	> 100 µM
COc1ccc(C(=O)NCCN(C)C)c2nc3ccccc3nc12	> 34.5 µM
C=C1C[C@@H]2CC[C@@]34C[C@H]5O[C@H]6[C@@H](O3)[C@H]3O[C@H](CC[C@@H]3O[C@H]6[C@@H]5O4)CC(=O)C[C@@H]3[C@@H](OC)[C@@H](C[C@H](O)CN)O[C@H]3C[C@H]3O[C@@H](CC[C@@H]1O2)C[C@@H](C)C3=C	> 81.9 µM
C/C(=N/NC(=O)C[N+](C)(C)C)C(CN(C)C)C(=O)Nc1ccccc1 (configuration not stated)	> 100 µM
CSc1n[nH]c(N)c1C(=O)Nc1ccccc1	> 100 µM
CC(=O)OCc1c(O)c2c(c(O)c1COC(C)=O)C(=O)C=CC2=O	23.7 µM
O=C1NCN(c2ccccc2)C12CCN(CCCN1CCN(CCOC(c3ccc(F)cc3)c3ccc(F)cc3)CC1)CC2	3.48 µM
COc1cc2ccc1OCc1cccc(n1)COc1ccc(cc1OC)C=Nc1ccc(cc1)N=C2	> 100 µM
Cn1c2ccccc2c(=O)c2c(O)cc3c(c21)C=CC1(CCCCC1)O3	> 10 µM
O=c1cc(N2CCCC2)[nH]c(=O)n1-c1ccccc1	> 100 µM
CC(C)(C)c1cc(C(=O)/C=C/c2ccc3c(c2)OCO3)cc(C(C)(C)C)c1O	65.3 µM
Cc1ccc(/C=C2\Cc3c(C)cc(C)cc3C2=O)c(C(=O)O)c1	> 100 µM
CO[C@@H]1O[C@H](C(=O)c2ccccc2)[C@H]2OC(C)(C)O[C@@H]12	> 100 µM
CC(=O)OC(Cn1cncn1)(Cn1cncn1)c1ccc(Cl)cc1Cl	> 100 µM
CCNC(=O)COc1ccc(Cl)cc1Cl	> 100 µM
CNC(=O)CCCNC(=O)CCCC(=O)N(C)C	> 100 µM
COc1ccc(-c2cc(-c3ccccc3)[nH]c(=S)c2C#N)cc1	94 µM
COc1ccc(CN2CCC/C=C/CC(Cl)(Cl)C2=O)cc1	57 µM
COc1ccc(N(C(=O)Nc2ccc(Cl)c(Cl)c2)C2c3cccn3C(=O)N2c2ccc(Cl)c(Cl)c2)cc1 (configuration not stated)	> 100 µM

----------
In this section, each of the compounds is paired with its reported TGI.
- Tested on: SF-268 CNS
- protocol: NCI tumour cell line growth inhibition, 48 h

compound	TGI
CCCCCCCCCCCCCCCC[N+]1(C)CCOCC1	4.22 µM
C(=N\Nc1nnn(Cc2ccccc2)n1)/c1ccccc1	> 89.3 µM
COc1ccc(/C(=N\NC(=S)NN)C(c2ccc(OC)cc2)C2C(=O)Oc3ccccc32)cc1 (stereo unspecified)	> 100 µM
Cc1ccccc1C(=O)N1CCN(C(=O)c2ccccc2C)CC1	> 100 µM
O=C1NCN(c2ccccc2)C12CCN(CCCN1CCN(CCOC(c3ccc(F)cc3)c3ccc(F)cc3)CC1)CC2	3.79 µM
c1c[nH]c(CN2CCOCC2)n1	> 100 µM

----------
- Test system: U251 CNS
- protocol: NCI tumour cell line growth inhibition, 48 h
Listed here: items and their measured TGI.

molecule	TGI
C=C1C(O)CC[C@]2(C)C1C1OC(C)(C)O[C@]13CC(=O)C(C)=C([C@H]1OC(C)(C)OC12)C3(C)C (stereo partly specified)	> 100 µM
CCCCN(CC)CC(C(C)=O)c1c(O)c2ccccc2oc1=O (stereo unspecified)	> 100 µM
CC1(C)[C@H]2CC[C@@]13C(=O)N1C(=O)O[C@@H]([C@H]1Cl)C(Cl)(COCc1ccccc1)C(=O)OCCO[C@H]3C2 (stereo partly specified)	> 100 µM
CC(=O)c1ccc2c(c1)CC1(C2)Cc2ccccc2C1=O (stereo unspecified)	> 100 µM
Cc1ccccc1C(=O)N1CCN(C(=O)c2ccccc2C)CC1	> 100 µM
O=C(/C=C/c1ccccc1)c1ccc(NCc2nc3ccccc3[nH]2)cc1	5.17 µM
O=c1cc(N2CCCC2)[nH]c(=O)n1-c1ccccc1	> 100 µM
C[C@H]1CCCC(O)C(O)[C@@H]2C[C@H](O[Si](C)(C)C(C)(C)C)C[C@H]2[C@H](O[Si](C)(C)C(C)(C)C)C(O)C(O)C(=O)O1 (stereo partly specified)	30.9 µM
COC(=O)C1(C)Cc2cc(OC(C)=O)c(OC(C)=O)cc2N1 (stereo unspecified)	21.9 µM
Cc1ccc(-c2nc3nc(-c4ccc(F)cc4)nc(N4CCCNCC4)c3o2)cc1	2.83 µM
CCC(C(=O)C(=O)OC)P1(=O)OC(C)(C)CN1C(C)(C)C (stereo unspecified)	> 100 µM
O=C(Nc1noc(-c2ccccc2)n1)c1ccccc1CNc1noc(-c2ccccc2)n1	> 100 µM
CC(=O)c1cnc2oc3ccc(O)cc3c2c1-c1ccccc1	> 100 µM
C/C(=N\NC(=O)CC#N)c1c(O)cc(C)oc1=O	> 100 µM
Cc1c2c(OCC3CCCCO3)nn(C)c(=O)c2c(C)n1-c1ccccc1 (stereo unspecified)	31.2 µM
O=C1NCN(c2ccccc2)C12CCN(CCCN1CCN(CCOC(c3ccc(F)cc3)c3ccc(F)cc3)CC1)CC2	3.45 µM
Cn1c2c(c3ccccc31)CCN(CCN1CCN(c3cccc(Cl)c3)CC1)C2=O	> 100 µM
C[C@]12CC[C@@H]3c4cc(I)c(O)cc4CC[C@H]3[C@@H]1CC[C@@H]2O	16.8 µM
CC(=O)OC(Cn1cncn1)(Cn1cncn1)c1ccc(Cl)cc1Cl	> 100 µM
COC(=O)C1(Cc2ccc3c(c2)CCC3)Cc2ccccc2C1	> 100 µM
O=C(N/N=C/c1cccc(F)c1)c1ccncc1	> 100 µM

----------
- System: HL-60(TB) leukemia
- protocol: NCI tumour cell line growth inhibition, 48 h; in the data active = GI50 below about 0.43 µM; inactive = the rest
Outcomes: 1.0 for active, 0.0 for inactive

compound	label_class
COc1cc(NCCCCCCCNC(C)C)c2nccc(C)c2c1	0.0
O=c1c(F)cn(Cc2ccccc2CCl)c(=O)n1Cc1ccccc1CCl	0.0
COC(=O)C1(C)Cc2cc(OC(C)=O)c(OC(C)=O)cc2N1 (stereo not drawn)	0.0
C=C1C(=O)O[C@H]2[C@H]1CC/C(C=Nc1c(N)cc(C(F)(F)F)cc1Br)=C\CC[C@@]1(C)O[C@@H]21	1.0
COc1ccc(OC)c(Cn2cc3c(c2-c2ccccc2)CCc2cnoc2-3)c1	0.0
O=C(N[C@@H](C[Se][Se]C[C@H](NC(=O)c1ccc(Br)cc1F)C(=O)O)C(=O)O)c1ccc(Br)cc1F	0.0
O=c1oc2ccc(I)cc2c(=O)n1-c1ccc(Cl)cc1F	0.0
Nc1ccc(/C=C/C(=O)NCc2cc3cc(-c4ccc(C(=O)N5CCC(F)(F)CC5)cc4)cc(-c4ccc(F)cc4)c3o2)cn1	0.0
